- Tgt: human A2A receptor (A2AR) (Homo sapiens, UniProt P29274)
- Sequence (P29274 whole entry): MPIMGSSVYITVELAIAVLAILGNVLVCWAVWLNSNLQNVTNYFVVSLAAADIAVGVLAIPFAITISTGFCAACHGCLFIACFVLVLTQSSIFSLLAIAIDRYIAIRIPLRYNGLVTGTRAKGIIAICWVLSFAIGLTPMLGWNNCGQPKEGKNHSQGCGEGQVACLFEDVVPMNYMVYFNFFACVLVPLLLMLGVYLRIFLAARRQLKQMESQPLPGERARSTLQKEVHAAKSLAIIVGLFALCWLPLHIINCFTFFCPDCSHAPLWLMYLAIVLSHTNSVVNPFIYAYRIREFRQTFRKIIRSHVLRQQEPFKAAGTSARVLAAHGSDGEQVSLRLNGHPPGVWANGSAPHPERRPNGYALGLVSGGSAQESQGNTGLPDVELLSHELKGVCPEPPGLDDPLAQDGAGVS
- Test protocol: Luciferase reporter assay (HEK293-A2AR-luc2p/CRE/Hygro cells, 3 nM CGS21680)
- Test parameters: 3 nM CGS21680, 5 h incubation
pIC50: −log10 of the molar value.
Measurement name: pIC50

Solved entries (count: 5):
{"Molecule": "COCCOc1ccc(N2CCN(C(=O)C(c3ccccc3)n3ncc4c3nc(N)n3nc(-c5ccco5)nc43)CC2)cc1 (single isomer, unassigned) [Compound A13a]", "pIC50": 7.57}
{"Molecule": "COCCOc1ccc(N2CCN(C(=O)C(C)(c3cccc(C)c3)n3ncc4c3nc(N)n3nc(-c5ccco5)nc43)CC2)cc1 (centres unmarked)", "pIC50": 8.19}
{"Molecule": "CCCC(C(=O)N1CCN(c2ccc(F)cc2)CC1)n1ncc2c1nc(N)n1nc(-c3ccco3)nc21 (centres unmarked)", "pIC50": 8.22}
{"Molecule": "COCCOc1ccc(N2CCN(C(=O)C(C)(c3ccccc3)n3cc4c(nc(N)n5nc(-c6ccco6)nc45)n3)CC2)cc1 (single isomer, unassigned) [Compound C25b]", "pIC50": 7.67}
{"Molecule": "COCCOc1ccc(N2CCN(C(=O)C(c3ccccc3)n3ncc4c3nc(N)n3nc(-c5ccco5)nc43)C(C)C2)cc1 (single isomer, unassigned) [Compound A50a]", "pIC50": 7.05}

(a) COCCOc1ccc(N2CCN(C(=O)C(C)(c3ccccc3)n3ncc4c3nc(N)n3nc(-c5ccco5)nc43)CC2)c(OC)c1 (centres unmarked)
(b) COCCOc1ccc(N2CCN(C(=O)C(C)(c3ccccc3)n3cc4c(nc(N)n5nc(-c6ccco6)nc45)n3)CC2)cc1 (centres unmarked) [Compound C25]
Query block: Quick one: lower pIC50, a or b ? Record your answer as the label of the chosen record.
Result block: b
(b: 7.66, a: 8.07)
